Experiment: Half life in male CD-1 mouse at 2 mg/kg, iv
Assay type: ADME, organism-based
Details: in vivo

>  <Query Smiles>
Cc1n[nH]c(C)c1N1CCN(c2cc(C(=O)O)ccc2F)CC1

>  <Unit Label>
h

>  <half-life>
5.08

$$$$

====

Molecular target: Transthyretin (Homo sapiens)
Experiment: Binding affinity to human plasma TTR tetramer assessed as displacement of diclofenac-coupled FITC by fluorescence polarization assay
# IC50 listing for each entry below
Measured Attribute: IC50 (nM)

>  <Compound>
Cc1n[nH]c(C)c1N1CCC2(CCN(c3cc(C(=O)O)ccc3F)C2)C1 (racemic)

>  <Measured Attribute>
IC50

>  <Qual>
=

>  <Measurement>
1080

$$$$
>  <Compound>
Cc1n[nH]c(C)c1N1CCN(c2cc(C(=O)O)ccc2I)CC1

>  <Measured Attribute>
IC50

>  <Qual>
=

>  <Measurement>
190

$$$$
>  <Compound>
O=C(O)c1ccc(F)c(N2CCN(c3ccccc3C(F)(F)F)CC2)c1

>  <Measured Attribute>
IC50

>  <Qual>
=

>  <Measurement>
1700

$$$$
>  <Compound>
Cc1n[nH]c(C)c1N1CC2(CN(c3cc(C(=O)O)ccc3F)C2)C1

>  <Measured Attribute>
IC50

>  <Qual>
>

>  <Measurement>
30000

$$$$
>  <Compound>
O=C(O)c1ccc(F)c(N2CCN(c3nn[nH]n3)CC2)c1

>  <Measured Attribute>
IC50

>  <Qual>
>

>  <Measurement>
30000

$$$$
>  <Compound>
Cc1n[nH]c(C)c1N1C[C@H]2CN(c3cc(C(=O)O)ccc3F)C[C@H]2C1

>  <Measured Attribute>
IC50

>  <Qual>
=

>  <Measurement>
2820

$$$$

====

Target: UniProt P33261
Sequence (P33261 whole entry): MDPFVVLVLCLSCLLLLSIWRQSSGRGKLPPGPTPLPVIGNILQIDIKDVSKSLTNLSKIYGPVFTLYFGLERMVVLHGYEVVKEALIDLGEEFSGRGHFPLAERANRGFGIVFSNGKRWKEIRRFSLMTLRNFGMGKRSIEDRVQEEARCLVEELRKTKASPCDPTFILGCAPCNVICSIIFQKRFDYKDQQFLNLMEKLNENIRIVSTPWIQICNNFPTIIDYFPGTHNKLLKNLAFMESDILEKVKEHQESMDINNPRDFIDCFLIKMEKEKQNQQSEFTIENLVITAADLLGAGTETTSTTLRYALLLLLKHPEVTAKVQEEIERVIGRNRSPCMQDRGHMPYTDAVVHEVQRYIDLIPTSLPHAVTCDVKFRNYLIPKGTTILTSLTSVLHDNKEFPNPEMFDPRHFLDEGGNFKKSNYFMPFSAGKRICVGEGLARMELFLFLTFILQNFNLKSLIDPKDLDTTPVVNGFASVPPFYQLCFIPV
Assay: Inhibition of CYP2C19 (unknown origin) at 10 uM relative to control
Format: ADME

>  <Query Smiles>
Cc1ccc(C(=O)O)cc1N1CCN(c2c(C)n[nH]c2C)CC1

>  <Unit Label>
%

>  <inhibition at 10 µM>
0.06

$$$$
>  <Query Smiles>
Cc1cc(F)c(N2CCN(c3c(C)n[nH]c3C)CC2)cc1C(=O)O

>  <Unit Label>
%

>  <inhibition at 10 µM>
-3

$$$$
>  <Query Smiles>
Cc1n[nH]c(C)c1N1CCN(c2cc(-c3nn[nH]n3)ccc2F)CC1

>  <Unit Label>
%

>  <inhibition at 10 µM>
-4.8

$$$$

====

Target: Cytochrome P450 3A4 (Homo sapiens, UniProt P08684)
Sequence (P08684 whole entry): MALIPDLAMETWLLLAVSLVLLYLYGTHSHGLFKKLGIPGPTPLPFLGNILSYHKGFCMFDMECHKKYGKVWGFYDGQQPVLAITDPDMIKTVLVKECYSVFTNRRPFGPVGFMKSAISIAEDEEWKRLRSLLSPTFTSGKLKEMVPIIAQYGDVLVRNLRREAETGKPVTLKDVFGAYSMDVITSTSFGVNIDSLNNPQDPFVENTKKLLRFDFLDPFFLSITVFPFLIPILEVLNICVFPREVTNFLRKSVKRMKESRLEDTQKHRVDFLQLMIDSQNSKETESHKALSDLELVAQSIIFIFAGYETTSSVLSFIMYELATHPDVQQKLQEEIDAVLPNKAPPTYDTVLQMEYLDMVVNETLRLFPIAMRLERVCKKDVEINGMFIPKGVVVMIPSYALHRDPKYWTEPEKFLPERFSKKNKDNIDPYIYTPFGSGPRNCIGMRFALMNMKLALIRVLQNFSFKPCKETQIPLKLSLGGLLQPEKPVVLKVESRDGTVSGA
Experiment: Inhibition of CYP3A4 (unknown origin) at 10 uM relative to control
Format: ADME
Conditions: 10 µM

>  <Query Smiles>
Cc1cc(F)c(N2CCN(c3c(C)n[nH]c3C)CC2)cc1C(=O)O

>  <Unit Label>
%

>  <inhibition (INH)>
31.7

$$$$
>  <Query Smiles>
Cc1n[nH]c(C)c1N1CCN(c2cc(C(=O)O)ccc2Cl)CC1

>  <Unit Label>
%

>  <inhibition (INH)>
19.5

$$$$
>  <Query Smiles>
Cc1n[nH]c(C)c1N1CCN(c2cc(C(=O)O)ccc2C(F)(F)F)CC1

>  <Unit Label>
%

>  <inhibition (INH)>
14.8

$$$$
>  <Query Smiles>
Cc1n[nH]c(C)c1N1CCN(c2cc(-c3nn[nH]n3)ccc2F)CC1

>  <Unit Label>
%

>  <inhibition (INH)>
18.9

$$$$
